Biological target: T1, hTRβ-LBD (ligand binding domain of thyroid hormone receptor β) (human, UniProt P10828 202-461)
T1 construct: Assayed with the small-molecule ligand T3 present
T1 sequence (looked up): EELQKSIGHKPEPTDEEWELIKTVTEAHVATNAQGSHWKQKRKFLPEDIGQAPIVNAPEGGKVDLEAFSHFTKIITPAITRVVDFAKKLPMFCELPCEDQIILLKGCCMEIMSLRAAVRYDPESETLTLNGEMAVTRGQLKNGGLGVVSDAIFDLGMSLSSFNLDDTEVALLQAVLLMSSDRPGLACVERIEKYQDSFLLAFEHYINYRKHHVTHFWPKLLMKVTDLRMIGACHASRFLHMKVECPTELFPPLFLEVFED
Test: fluorescence polarization, hTRβ-LBD titrated, T3 present; Table 3 prints ≧3 µM for this pair
pKd: −log10 of the molar value. Ends that are not written are not given here.
observed-property: pKd

binder	result
C(5‑iodoacetamidofluorescein)KKKENALLRYLLDKDDTKD [SRC2-3 coregulator peptide]	5.52
